// data source = paper PMC5831498

Test system: Human influenza A virus (A/WS/33 [H1N1])
Assay: microbe, parasite or virus in culture
Format: cell-based
Conditions: MDCK cells
Observable: inhibition of replication of A/WS/33 (in words)

[
  {
    "Compound": "NC12CC3CC(CC(C3)C1)C2 [Amantidine, amantadine]",
    "Observed Value": "potently inhibited"
  },
  {
    "Compound": "CCOC(=O)C1=C[C@@H](OC(CC)CC)[C@H](NC(C)=O)[C@@H](N)C1 [Oseltamivir, oseltamivir phosphate]",
    "Observed Value": "potently inhibited"
  }
]

###

Measured SI for A/WS/33 (selectivity index) by item
Tested on: Human influenza A virus (A/WS/33 [H1N1])
Assay: microbe, parasite or virus in culture
Type: cell-based
Settings: CC50/EC50, MDCK cells

[
  {
    "Molecule": "NC12CC3CC(CC(C3)C1)C2 [Amantidine, amantadine]",
    "System Tested": "Human influenza A virus (A/WS/33 [H1N1])",
    "Bound Type": ">",
    "SI for A/WS/33 (selectivity index)": 83.3
  },
  {
    "Molecule": "C/C1=C/[C@H](O)C(C)(C)CCC/C(C)=C/C[C@H]1OC(=O)c1ccc(O)cc1",
    "System Tested": "Human influenza A virus (A/WS/33 [H1N1])",
    "Bound Type": "=",
    "SI for A/WS/33 (selectivity index)": 8.8
  },
  {
    "Molecule": "CCOC(=O)C1=C[C@@H](OC(CC)CC)[C@H](NC(C)=O)[C@@H](N)C1 [Oseltamivir, oseltamivir phosphate]",
    "System Tested": "Human influenza A virus (A/WS/33 [H1N1])",
    "Bound Type": ">",
    "SI for A/WS/33 (selectivity index)": 660
  },
  {
    "Molecule": "CC(=O)Oc1ccccc1C(=O)Nc1ncc([N+](=O)[O-])s1 [NTZ, nitazoxanide]",
    "System Tested": "Human influenza A virus (A/WS/33 [H1N1])",
    "Bound Type": "=",
    "SI for A/WS/33 (selectivity index)": 16
  },
  {
    "Molecule": "O=c1c(O[C@@H]2O[C@H](CO)[C@@H](O)[C@H](O)[C@H]2O)c(-c2ccc(O)c(O)c2)oc2cc(O)cc(O)c12",
    "System Tested": "Human influenza A virus (A/WS/33 [H1N1])",
    "Bound Type": "=",
    "SI for A/WS/33 (selectivity index)": 90
  }
]
